Test system: NCIH460, HCT116, MDAMB-231/U 251
Test: Anti-cancer screen, mean GI50 over the cell lines
Assay type: cell-based
Conditions: in µM
Known Mean GI50 of a selection of compounds
Hey, just send me the number, nothing else.

# example entries with known answers
{"compoundSmiles": "O=C(NCc1ccc(C(=O)N2CCN(c3ncccn3)CC2)cc1)OCc1nccs1", "Mean GI50": 14.1}
{"compoundSmiles": "O=C(Cc1csc(NC(=O)OCc2cccnc2)n1)NO", "Mean GI50": 0.4}

For reference, reported Mean GI50 for "O=C(NCc1ccc(C(=O)N2CCN(Cc3ccc4c(c3)OCO4)CC2)cc1)OCc1cccs1" stands at 0.6

----------
Test system: MDAMB-231/U 251
Test: Anti-cancer screen (MTT), MDAMB-231/U 251
Assay type: cell-based
Conditions: 48 hours with compound, MTT; tested at 0.01-100 µM; read-out: MDAMB-231/U 251 LC50
CC50 reference

See these solved cases before continuing.
{"molecule": "O=C(Cc1csc(NC(=O)OCc2ccc(Br)s2)n1)NO [Example 6]", "recordedMeasurement": "> 100 µM"}
{"molecule": "CC(=O)N(O)C(=O)Cc1csc(NC(=O)OCc2ccc(Br)s2)n1 [Example 78]", "recordedMeasurement": "> 100 µM"}
{"molecule": "O=C(Cc1csc(NC(=O)OCc2cc(Br)cs2)n1)NO [Example 7]", "recordedMeasurement": "> 100 µM"}

Value of CC50 reported for the molecule CC(=O)N(O)C(=O)Cc1csc(NC(=O)OCc2cc(Br)cs2)n1 [Example 79] is 100 µM

get_value(item= Cc1ncsc1COC(=O)Nc1nc(CC(=O)NO)cs1 [Example 8] , readout=CC50) returns > 100 µM

----------
HCT116 log10 GI50 data
Lab note - GI50 converted to log10 from values in µM.

{"compound": "Nc1ccccc1NC(=O)Cc1csc(NC(=O)OCc2nc3ccccc3s2)n1", "log10 GI50": 0.90}
{"compound": "O=C(NCc1ccc(C(=O)Nc2nnc(C3CC3)s2)cc1)OCc1nc2ccccc2s1", "log10 GI50": 0.26}
{"compound": "COc1cc(COC(=O)NCc2ccc(C(=O)NO)cc2)cc(OC)c1OC", "log10 GI50": 1.54}
{"compound": "O=C(CCCCCNC(=O)Cc1csc(NC(=O)OCc2nc3ccccc3s2)n1)NO", "log10 GI50": 1.58}
{"compound": "O=C(NCc1ccc(C(=O)Nc2nnc(C3CC3)s2)cc1)OCc1c(F)cc(F)cc1F", "log10 GI50": 1.20}

Next, consider the following compound.
I looked up O=C(Cc1csc(NC(=O)OCC2COc3ccccc3O2)n1)NO (stereo not shown) and its log10 GI50 for HCT116 was 1.60

----------
Test system: NCIH460, HCT116, MDAMB-231/U 251
Experiment: Anti-cancer screen, mean GI50 over the cell lines
Type: cell-based
Details: in µM
Overview of reported Mean GI50 across a group of compounds:
Write the number on its own, no unit after it.

Below are worked cases with known answers.
{"compound": "O=C(NCc1ccc(C(=O)NO)cc1)OCc1c(F)c(F)c(F)c(F)c1F", "measurementKind": "Mean GI50", "recordedMeasurement": 1.5}
{"compound": "O=C(CCCNC(=O)Cc1csc(NC(=O)OCc2nc3ccccc3s2)n1)NO", "measurementKind": "Mean GI50", "recordedMeasurement": 35.7}
{"compound": "O=C(Cc1csc(NC(=O)OCc2ccc(Br)s2)n1)NO", "measurementKind": "Mean GI50", "recordedMeasurement": 24}
{"compound": "Nc1ccccc1NC(=O)Cc1csc(NC(=O)OCc2nc3ccccc3s2)n1", "measurementKind": "Mean GI50", "recordedMeasurement": 9}

Mean GI50 reported for this compound "O=C(Cc1csc(NC(=O)OCc2ccsc2)n1)NO" : 31

Reported Mean GI50 ( O=C(NCc1ccc(C(=O)N2CCC(N3CCCCC3)CC2)cc1)OCC1COc2ccccc2O1 (stereo not shown) ) = 36

Note to self: Mean GI50 recorded for "O=C(NCc1ccc(C(=O)NO)cc1)OCn1nnc2ccccc21" was 49.3

// Mean GI50 value for "O=C(NCc1ccc(C(=O)NO)cc1)OCc1ccsc1" : 24.9

----------
Listed molecules paired with reported GI50
Test system: HCT116

{"compoundSmiles": "O=C(NCc1ccc(C(=O)NO)cc1)OCc1nc2ccccc2s1", "GI50": "0.23 µM"}
{"compoundSmiles": "CON(C)C(=O)Cc1csc(NC(=O)OCc2cccnc2)n1", "GI50": "80 µM"}
{"compoundSmiles": "O=C(Cc1csc(NC(=O)OCc2ccncc2)n1)NOCc1ccccc1", "GI50": "65 µM"}
{"compoundSmiles": "O=C(Cc1csc(NC(=O)OCc2nc3ccccc3s2)n1)NO", "GI50": "48 µM"}
{"compoundSmiles": "O=C(NCc1ccc(C(=O)Nc2ccccc2NC(=O)c2ccc3c(c2)OCO3)cc1)OCc1cccs1", "GI50": "> 100 µM"}

Readout GI50 for "O=C(NCc1ccc(C(=O)N2CCN(Cc3ccc4c(c3)OCO4)CC2)cc1)OCc1cccs1" , test system HCT116, was 0.4 µM

The reported HCT116 GI50 of "O=C(Cc1csc(NC(=O)OCc2cccnc2)n1)NO" is 0.25 µM

Measured on HCT116, "O=C(NCc1ccc(C(=O)NO)cc1)OCn1nnc2ccccc21" has a documented GI50 of 60 µM

The measured GI50 that "O=C(NCc1ccc(C(=O)NO)cc1)OCc1ccc(C(F)(F)F)cc1" showed for HCT116 is 5 µM

----------
Listed here: items and their measured Mean GI50.
Test system: NCIH460, HCT116, MDAMB-231/U 251
Test: Anti-cancer screen, mean GI50 over the cell lines
Assay type: cell-based
Conditions: in µM
Write no unit; give the number alone.

{"compoundSmiles": "O=C(Cc1csc(NC(=O)OCc2cc(Br)cs2)n1)NO", "recordedMeasurement": 16.7}

Value of measured Mean GI50 for the entry "O=C(CCCCCNC(=O)Cc1csc(NC(=O)OCc2c(F)c(F)c(F)c(F)c2F)n1)NO" : 25.66

Recorded result, "CON(C)C(=O)c1ccc(CNC(=O)OCc2cccs2)cc1" , Mean GI50: 1.8

// "CN(C)C(=O)Cc1csc(NC(=O)OCc2cccnc2)n1" : Mean GI50 value = 14

Lab note: measured Mean GI50 of "O=C(CCCCCNC(=O)Cc1csc(NC(=O)OCc2nc3ccccc3s2)n1)NO" was 25.35

Sample "O=C(NCc1ccc(C(=O)N2CCN(Cc3ccc4c(c3)OCO4)CC2)cc1)OCc1c(F)cc(F)cc1F" ; Mean GI50 observed: 1.7

----------
Tested on: HCT116
The compounds listed here are annotated with their GI50.
Express the result in µM but write the number alone.

Lookup result for "O=C(Nc1ccc(C(=O)NO)cc1)OCC1c2ccccc2-c2ccccc21" ; measured GI50: 7.5

----------
measurementKind: melting point

Some compounds with recorded melting point:
{"compoundSmiles": "O=C(NCc1ccc(C(=O)N2CCC[C@H]2C(=O)NO)cc1)OCc1cccs1", "melting point": "90.6 to 91.5 °C"}
{"compoundSmiles": "O=C(NCc1ccc(C(=O)N2CCN(c3ccccn3)CC2)cc1)OCc1cccs1", "melting point": "129.3 to 130.3 °C"}
{"compoundSmiles": "O=C(NCc1ccc(C(=O)N[C@@H](Cc2ccc(O)cc2)C(=O)NO)cc1)OCc1cccs1", "melting point": "162.6 to 163.4 °C"}

// next item, melting point requested
Note to self: melting point recorded for "O=C(NCc1ccc(C(=O)N2CCN(c3ncccn3)CC2)cc1)OCc1cccs1" was 143.6 to 144.6 °C

----------
System: NCIH460, HCT116, MDAMB-231/U 251
Experiment: Anti-cancer screen, mean GI50 over the cell lines
Assay type: cell-based
Settings: in µM
measurementKind: Mean GI50
Note: the reply should be a number with no unit written.

{"compoundSmiles": "O=C(NCc1ccc(C(=O)NO)cc1)OCc1nc2ccccc2[nH]1", "measurementKind": "Mean GI50", "recordedMeasurement": 2.8}

Now examine the next entry.
According to the records, this compound "CC(=O)N(O)C(=O)Cc1csc(NC(=O)OCc2ccsc2)n1" displays Mean GI50 of 39.7

----------
System: HCT116
Assay: Anti-cancer screen (MTT), HCT116
Assay type: cell-based
Conditions: Homo sapiens, HCT-116, 48 hours with compound, tested at 0.01-100 µM
measurementKind: GI50

{"compound": "O=C(NCc1ccc(C(=O)NO)cc1)OCc1c(F)cc(F)cc1F [Example 38]", "targetDesc": "HCT116", "GI50": "5 µM"}
{"compound": "O=C(CCCCNC(=O)Cc1csc(NC(=O)OCc2nc3ccccc3s2)n1)NO [Example 93]", "targetDesc": "HCT116", "GI50": "40 µM"}
{"compound": "Nc1ccccc1NC(=O)Cc1csc(NC(=O)OCc2ccncc2)n1 [Example 24]", "targetDesc": "HCT116", "GI50": "> 100 µM"}

GI50 recorded for this compound, O=C(Cc1csc(NC(=O)OCc2cccnc2)n1)Nc1ccccc1O [Example 19] , is 34 µM

Looking up Nc1ccccc1NC(=O)Cc1csc(NC(=O)OCc2nccs2)n1 [Example 23] , I found its GI50 recorded as > 100 µM

GI50 reading for CNC(=O)Cc1csc(NC(=O)OCc2cccnc2)n1 [Example 15] : 100 µM

Per the records, this compound ( O=C(Cc1csc(NC(=O)OCc2ccc(Br)s2)n1)NO [Example 6] ) has GI50 equal to 65 µM

GI50 recorded for this compound, O=C(CCCNC(=O)Cc1csc(NC(=O)OCc2nccs2)n1)NO [Example 95] , is > 100 µM

Consider O=C(Cc1csc(NC(=O)OCc2ccncc2)n1)NO [Example 4] . Its measured GI50 is > 100 µM
